- target under test: EGFR phosphorylation in A431 (EGFR wild-type) cells (Homo sapiens (Human), UniProt P00533)
- Sequence (P00533 25-1210): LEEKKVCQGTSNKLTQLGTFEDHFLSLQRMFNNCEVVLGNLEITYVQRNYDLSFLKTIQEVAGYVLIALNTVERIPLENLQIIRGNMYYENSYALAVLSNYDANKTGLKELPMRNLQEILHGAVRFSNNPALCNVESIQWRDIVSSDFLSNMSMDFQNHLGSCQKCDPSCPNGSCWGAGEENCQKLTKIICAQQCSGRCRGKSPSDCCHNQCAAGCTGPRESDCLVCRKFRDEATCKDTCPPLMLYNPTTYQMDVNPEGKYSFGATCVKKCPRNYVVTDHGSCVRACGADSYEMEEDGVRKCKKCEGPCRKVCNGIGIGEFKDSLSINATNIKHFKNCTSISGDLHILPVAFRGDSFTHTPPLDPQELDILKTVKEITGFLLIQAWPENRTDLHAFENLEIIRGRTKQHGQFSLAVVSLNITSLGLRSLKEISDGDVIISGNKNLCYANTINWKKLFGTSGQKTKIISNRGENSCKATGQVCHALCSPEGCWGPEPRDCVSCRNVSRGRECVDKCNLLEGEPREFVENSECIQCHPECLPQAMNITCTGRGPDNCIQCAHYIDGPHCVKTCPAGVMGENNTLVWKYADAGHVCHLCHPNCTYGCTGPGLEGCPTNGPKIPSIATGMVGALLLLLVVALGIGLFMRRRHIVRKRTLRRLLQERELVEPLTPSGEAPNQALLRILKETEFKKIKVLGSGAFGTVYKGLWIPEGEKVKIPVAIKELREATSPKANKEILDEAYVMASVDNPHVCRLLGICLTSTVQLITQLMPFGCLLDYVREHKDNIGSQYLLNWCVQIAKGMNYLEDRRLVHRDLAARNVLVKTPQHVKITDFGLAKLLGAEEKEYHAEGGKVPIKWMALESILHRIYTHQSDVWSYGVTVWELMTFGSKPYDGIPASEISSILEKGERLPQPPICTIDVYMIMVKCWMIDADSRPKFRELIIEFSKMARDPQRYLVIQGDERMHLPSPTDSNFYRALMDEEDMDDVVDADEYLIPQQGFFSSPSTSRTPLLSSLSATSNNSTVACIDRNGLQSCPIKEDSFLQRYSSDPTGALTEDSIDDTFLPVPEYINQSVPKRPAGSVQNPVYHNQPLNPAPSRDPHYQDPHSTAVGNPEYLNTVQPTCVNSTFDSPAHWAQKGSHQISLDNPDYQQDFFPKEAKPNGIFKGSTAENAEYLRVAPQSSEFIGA
- assay notes: Inhibition of EGFR phosphorylation in A431 cells (ELISA)
- Format: cell-based
- conditions used: 1 h compound treatment, EGF stimulation, read-out: A431 cell (IC50/μM)
For each entry below, report its IC50 value.
Provide only the numeric value, understood in µM.

Assay EGFR phosphorylation in A431 (EGFR wild-type) cells (Homo sapiens (Human), UniProt P00533), sample C=CC(=O)Nc1cc(Nc2nc(-c3cn(C)c4ccccc34)c3cc[nH]c3n2)c(OC)cc1N(C)CCN(C)C , IC50 read: 0.119

Assay EGFR phosphorylation in A431 (EGFR wild-type) cells (Homo sapiens (Human), UniProt P00533), sample C=CC(=O)Nc1cc(Nc2nc(-c3cnc4c(ccn4C)c3)c3cc[nH]c3n2)c(OC)cc1N(C)CCN(C)C , IC50 read: 0.254

Assay EGFR phosphorylation in A431 (EGFR wild-type) cells (Homo sapiens (Human), UniProt P00533), sample C=CC(=O)Nc1cc(Nc2nc(-c3ccccc3)c3cc[nH]c3n2)c(OC)cc1N(C)CCN(C)C , IC50 read: 1.87

Assay EGFR phosphorylation in A431 (EGFR wild-type) cells (Homo sapiens (Human), UniProt P00533), sample C=CC(=O)Nc1cc(Nc2nc(OC3CN(S(C)(=O)=O)C3)c3cc[nH]c3n2)c(OC)cc1N(C)CCN(C)C , IC50 read: 0.86
